test: Antiamebic activity against Entamoeba criceti infected in hamster assessed as reduction of trophozoites in cecum administered intragastric gavage bid for three consecutive days by microscopy; format: functional; settings: Caecum, po
MEASURED QUANTITY: log10 ED50 (log10 of the value in mg/kg)
Form field - Quantity: ED50; Unit: mg/kg; Scale: log10

Known log10 ED50 results, listed for orientation:
MOLECULE	MEASURED QUANTITY	RECORDED RESULT
CCCC(=O)Oc1ccc2c(c1)CCCN2C(=O)C(Cl)Cl	log10 ED50	-0.12
O=C(C(Cl)Cl)N1CCCc2c1ccc(O)c2Cl	log10 ED50	-0.30
O=C(Oc1ccc2c(c1)CCCN2C(=O)C(Cl)Cl)c1cccs1	log10 ED50	-0.80
O=C(Oc1ccc2c(c1Cl)CCCN2C(=O)C(Cl)Cl)c1cccs1	log10 ED50	-0.66
O=C(Oc1ccc2c(c1Br)CCCN2C(=O)C(Cl)Cl)c1ccco1	log10 ED50	-0.41

The molecule listed as O=C(Oc1ccc2c(c1)CCCN2C(=O)C(Cl)Cl)c1ccco1 [QUINFAMIDE] shows log10 ED50 equal to -0.70

# molecule `O=C(Oc1ccc2c(c1)CCCN2C(=O)C(Cl)Cl)c1ccccc1` ; its log10 ED50 = -0.70

Short answer for `O=C(N1CCCc2cc(O)ccc21)C(Cl)(Cl)Cl` : log10 ED50 was 0.48

Entry `CNC(=O)Oc1ccc2c(c1)CCCN2C(=O)C(Cl)Cl` ; log10 ED50 = 0.76

Entry `O=C(CCl)N1CCCc2cc(O)ccc21` — recorded log10 ED50 = 0.30

----------
test: Antiamebic activity against Entamoeba criceti infected in hamster assessed as reduction of trophozoites in cecum administered intragastric gavage bid for three consecutive days by microscopy; assay type: functional; settings: Caecum, po
MEASURED QUANTITY: ED50 (mg/kg)
Kindly answer with a numeric value in mg/kg, unit omitted.

// solved cases for ED50 follow
SMILES STRUCTURE	RESULT UNIT	ED50
CCCCCC(=O)Oc1ccc2c(c1)CCCN2C(=O)C(Cl)Cl	mg/kg	1.75
O=C(Oc1ccc2c(c1Br)CCCN2C(=O)C(Cl)Cl)c1cccs1	mg/kg	1.24
O=C(C(Cl)Cl)N1CCCc2c1ccc(O)c2Br	mg/kg	0.56
O=C(Oc1ccc2c(c1Cl)CCCN2C(=O)C(Cl)Cl)c1ccco1	mg/kg	0.21

// next item, ED50 requested
Reported ED50 of `O=C(C(Cl)Cl)N1CCCc2cc(O)ccc21` : 1.2
